Hello, the source for this data is ChEMBL document CHEMBL2010655, in case you need it.

test: Inhibition of advanced glycation end-products formation after 14 days by spectrofluorimetry
Type: physicochemical
# IC50 per entry

Example results:
COc1cc(-c2oc3cc(O)cc(O)c3c(=O)c2O[C@@H]2O[C@H](CO[C@@H]3O[C@@H](C)[C@H](O)[C@@H](O)[C@H]3O)[C@@H](O)[C@H](O)[C@H]2O)ccc1O [NARCISSIN] :: > 50 µM
C=CCCCCC/C=C/[C@H](O)C#CC#C[C@@H](O)[C@H](C)O [GYMNASTERKOREAYNE E] :: > 50 µM
CC[C@H](CC[C@@H](C)[C@H]1CC[C@H]2[C@@H]3CC=C4C[C@@H](O[C@@H]5O[C@H](CO)[C@@H](O)[C@H](O)[C@H]5O)CC[C@]4(C)[C@H]3CC[C@]12C)C(C)C [SITOGLUSIDE] :: > 50 µM

q: I have this compound here, O=C(/C=C/c1ccc(O)c(O)c1)O[C@@H]1C[C@](O)(C(=O)O)C[C@@H](O)[C@H]1O [CHLOROGENIC ACID] , and I need its recorded IC50.
a: > 50 µM

q: Data request, read-out IC50, for C=CCc1ccc(O[C@@H]2O[C@H](CO)[C@@H](O)[C@H](O)[C@H]2O)c(OC)c1 [CITRUSIN C]
a: > 50 µM

q: Consider the compound `CC1=CC[C@@H](O)[C@]2(C)[C@@H](OC(=O)/C=C/c3ccc(O)cc3)C[C@@H](C(C)C)[C@@H](O[C@@H]3O[C@H](CO)[C@@H](O)[C@H](O)[C@H]3O)[C@@H]12` and give its measured IC50.
a: > 50 µM

q: Data request, read-out IC50, for `O=C(/C=C/c1ccc(O)c(O)c1)O[C@@H]1C[C@](O)(C(=O)O)C[C@@H](OC(=O)/C=C/c2ccc(O)c(O)c2)[C@H]1O`
a: 6.6 µM

q: Item `CC(/C=C1\SC(=S)N(CC(=O)O)C1=O)=C\c1ccccc1` has what recorded IC50?
a: > 50 µM

q: Query (compound): COc1cc(-c2oc3cc(O)cc(O)c3c(=O)c2O[C@@H]2O[C@H](CO)[C@@H](O)[C@H](O)[C@H]2O)ccc1O (stereo in doubt; 7) ; field requested: IC50
a: 44.4 µM
